assay_text: Cytotoxicity (CC50), MTS assay
experimental_parameters: human
readout_label: CC50 at 48 h

Q. Record request: CC50 at 48 h value, item `O=c1cc(-c2ccccc2)oc2c(Br)c(O)c(O)c(O)c12`
A. > 100 µM

----------
test_target: DENV2 NS5/RdRp (Dengue virus type 2)
Construct: The 73.2 kDa of non-tagged NS5/RdRp was successfully purified by size exclusion chromatography; His-tag (N, cleaved yes); made in house
assay_text: In vitro RdRp assay (SYTO-9 fluorescence)
Type: biochemical, DENV-2
Catalogue of molecules with associated IC50
The reply should contain only the number, in µM.

O=c1cc(-c2ccccc2)oc2cc(O)c(O)c(O)c12 [baicalein, 5,6,7-trihydroxyflavone]
242

Moving on to another molecule below.
Q. Record request: IC50 value, item O=c1cc(-c2ccccc2)oc2c(Br)c(O)c(O)c(O)c12 [8-bromobaicalein]
A. 34.9
